Assay: protein stability index of a GFP-peptide fusion (yeast GPS) (PSI 1-4); higher = more stable; sorted into four equal gates, so the index is relative within each strain
Conditions: pdr5∆
property.name: protein stability index
Field format: numeric only.

| chain | protein stability index |
| --- | --- |
| LFQVEYSLEAIKLGSTA [PUP2] | 2.32 |
| ERSLAVKYINFGKTVKD [RPC31] | 3.18 |
| KLDENNAQLSCITKQDG [PUP2] | 3.13 |
| LKSFTESTAGSASTSAT [ECM29] | 3.14 |
| VDENGDPIWQHQSLGPD [RET1] | 3.21 |
| IEPLEINIQSFKDVEHI [BRR2] | 2.31 |
| EDYELSPQAVSSFVRQE [PRE1] | 2.42 |
| NNNNTIDESMPDTAIDS [GRR1] | 3.02 |
| DLRIRIKLDIVVGQNQL [SNF5] | 1.38 |
| LIIRCRVVRPKSLDAET [RPO21] | 2.52 |

Entry GIFIKILNDSLIYHLKD [IRR1] : reported protein stability index = ?
1.31

Entry YPLPKFPTTSHESLVTT [MED8] : reported protein stability index = ?
1.92

Entry QSNYGIYSSDAQGDPNL [NUT1] : reported protein stability index = ?
2.92

Entry PNEFMQFKSKEVEKAHP [PRP8] : reported protein stability index = ?
3.37

Entry ITSWYENHNKGKLWKDV [QCR9] : reported protein stability index = ?
3.14

====

Test: protein stability index of a GFP-peptide fusion (yeast GPS) (PSI 1-4); higher = more stable; sorted into four equal gates, so the index is relative within each strain
Details: san1∆
property.name: protein stability index
Field format: numeric only.

Record excerpt, results attached:
| chain | protein stability index |
| --- | --- |
| TTNLDIDLLTFQYGSRL [RPP1] | 3.06 |
| ESLSEEHASLLVRDSKP [MED8] | 2.69 |
| NGNITYSEEPREKVRKL [FAS2] | 3.3 |

Entry CINKWIKTRDACPLDNQ [HRT1] : reported protein stability index = ?
2.72

Entry IGGMRVDENGDPIWQHQ [RET1] : reported protein stability index = ?
2.88

Entry GTGKTLLAKAVANQTSA [RPT2] : reported protein stability index = ?
2.72

Entry LNIGKNFAHSDSLSVPK [SIR4] : reported protein stability index = ?
3.12

Entry QKVFVRSRNGGATKIVR [DIS3] : reported protein stability index = ?
2.88

====

Assay: protein stability index of a GFP-peptide fusion (yeast GPS) (PSI 1-4); higher = more stable; sorted into four equal gates, so the index is relative within each strain
Conditions: doa10∆
// classify(record): look up protein stability index in ranges L (below 2), M (2 to below 3), H (3 or more)

Completed entries (count: 5):
| chain | class |
| --- | --- |
| FVNGVATSFSRKKARTF [FAS2] | L |
| GYENGMLAQWDLRSPEC [RPN14] | H |
| KDAVDYSKIPNILSNKP [RRP6] | L |
| MASLPHPKIVKKHTKKF [RPL32] | M |
| YFFQLQIRSADEPMTTF [RPC11] | M |

Tag the class for PLINRLKHYNGYDINYI [SWI1]
M

Tag the class for LQGQMEKIMILLVPLAL [CSN12]
L

Tag the class for KVSGVSLLALWKEKKEK [RPS23A]
M

Tag the class for IFSYLQFTSSLFKALKV [RGR1]
L

Tag the class for ANSSITPAFGSNNTGNT [YJL041W/NSP1]
M
